Test: Brain and plasma exposure in rats after oral dosing (DMPK analysis)
Format: in vivo
Settings: male, Sprague Dawley, 30 mg/kg p.o., 3 hours post dose, rat, read-out: Brain/Plasma ratio
MEASUREMENT_TYPE: Kp at 3 h

1) C[C@@]1(F)CC(F)(F)[C@@](C)(c2cc(NC(=O)c3cnc(C(F)F)cn3)ccc2F)N=C1N	1.2
2) COc1ccc(C(=O)Nc2ccc(F)c([C@@]3(C)N=C(N)[C@@](C)(F)CC3(F)F)c2)nc1	1.48
3) C[C@]1(F)CC(F)(F)[C@@](C)(c2cc(NC(=O)c3ccc(F)cn3)ccc2F)N=C1N	0.62

(P) Cc1cc(C#N)cnc1C(=O)Nc1ccc(F)c([C@@]2(C)N=C(N)[C@@](C)(F)CC2(F)F)c1
(Q) COc1cnc(C(=O)Nc2ccc(F)c([C@@]3(C)N=C(N)[C@@](C)(F)CC3(F)F)c2)cn1
Exercise: // compare measured Kp at 3 h between P and Q ; output the lower one When you have decided, please share the label of that item.
Key: P
(P: 0.54, Q: 1.5)
